- testMethodNotes: Evaluation of solid-state stability (60° C., four weeks, air-tightly)
- Assay type: physicochemical
- recordedConditions: stored air-tightly at 60° C. for four weeks
propertyMeasured: Decomposition product increased by not less than 0.15% after 4 weeks

compound	observedValue
CN(c1ccc(/C=C/C[C@H](NC(=O)c2c(Cl)cccc2Cl)C(=O)O)cc1)c1ncccn1 [Amorphous]	8 different
CN(c1ccc(/C=C/C[C@H](NC(=O)c2c(Cl)cccc2Cl)C(=O)O)cc1)c1ncccn1 [Form B]	nothing
CN(c1ccc(/C=C/C[C@H](NC(=O)c2c(Cl)cccc2Cl)C(=O)O)cc1)c1ncccn1 [Form E]	nothing
CN(c1ccc(/C=C/C[C@H](NC(=O)c2c(Cl)cccc2Cl)C(=O)O)cc1)c1ncccn1 [Form C]	nothing
CN(c1ccc(/C=C/C[C@H](NC(=O)c2c(Cl)cccc2Cl)C(=O)O)cc1)c1ncccn1 [Form A]	nothing
CN(c1ccc(/C=C/C[C@H](NC(=O)c2c(Cl)cccc2Cl)C(=O)O)cc1)c1ncccn1 [Form D]	nothing
